# melting point per entry

Example cases with answers are listed next.
> print(dat)
                                   compound           result
1  CC(C)OCCNS(=O)(=O)NC(=O)OCCCc1ccc(OCc2ccco2)cc1Oc1ncc(C(F)(F)F)cc1Cl  118 to 119.8 °C
2  COCCCNS(=O)(=O)NC(=O)OCCCc1ccc(OCCOC)cc1Oc1ncc(Cl)cc1Cl    87.9 to 89 °C

# compound CCCCOc1ccc(CCCOC(=O)NS(=O)(=O)NCCOC(C)C)c(Oc2ncc(C(F)(F)F)cc2Cl)c1 ; its melting point = 91.4 to 91.6 °C

Record CCCCN(C)C(=O)OCCCc1ccc(OCCOC)cc1Oc1ncc(C(F)(F)F)cc1Cl , field melting point: 54 to 55.2 °C

CCCCCS(=O)(=O)NC(=O)CC(C)c1ccc(OCCOC)cc1Oc1ncc(C(F)(F)F)cc1Cl (stereo not shown) has a reported melting point of 136.9 to 137.1 °C

compound CCCCCS(=O)(=O)NC(=O)/C=C/c1cc(OCCCC)nn1Cc1ccc(C(F)(F)F)cc1Cl , melting point observed: 130 to 132 °C

Reported melting point ( COCCOc1ccc(/C=C/C(=O)NS(=O)(=O)c2ccc(Cl)cc2)c(Oc2ncc(C(F)(F)F)cc2Cl)c1 ) = 182 to 182.5 °C
